- Tested on: rodent lifetime carcinogenesis bioassay, tumor incidence TD50
- assay_name: carcinogenic potency in animals, long-term in vivo studies, CPDB compilation (AID 1745844)
- recorded_conditions: mouse; strain DDY; males; in feed; site: lung; lesion: adenoma; dosed 44 weeks; study length 80 weeks
reported_endpoint: TD50 (mg/kg/day)
Numeric only. Scale: mg/kg/day

Memo: NC(=O)C(=Cc1ccc([N+](=O)[O-])o1)c1ccco1 , reported TD50: 299

###

- Test system: rodent lifetime carcinogenesis bioassay, tumor incidence TD50
- assay_name: carcinogenic potency in animals, long-term in vivo studies, CPDB compilation (AID 1745844)
- recorded_conditions: rat; strain F344/DuCrj; males; in feed; site: skin; lesion: several types; types named in the paper; dosed 61 weeks; study length 61 weeks
reported_endpoint: TD50

Memo: Cc1cnc2ccc3c(nc(N)n3C)c2n1 , reported TD50: 8.76 mg/kg/day

###

- System: rodent lifetime carcinogenesis bioassay, tumor incidence TD50
- assay_name: carcinogenic potency in animals, long-term in vivo studies, CPDB compilation (AID 1745844)
- recorded_conditions: mouse; strain B6C3F1; males; in feed; site: Harderian gland; lesion: adenoma + adenoma, bilateral + carcinoma + carcinoma, bilateral; dosed 104 weeks; study length 105 weeks
reported_endpoint: TD50

Memo: OCC(CO)(CBr)CBr , reported TD50: 155 mg/kg/day

###

- System: rodent lifetime carcinogenesis bioassay, tumor incidence TD50
- assay_name: carcinogenic potency in animals, long-term in vivo studies, CPDB compilation (AID 1745844)
- recorded_conditions: mouse; strain B6C3F1; females; by gavage; site: liver + spleen; lesion: hemangiosarcoma; dosed 103 weeks; study length 106 weeks
Active and inactive are the calls of the source. How the calls were made is not given here.
reported_endpoint: TD50

Memo: BrC(Br)Br , reported TD50: 1110 mg/kg/day (inactive)

###

- Test system: rodent lifetime carcinogenesis bioassay, tumor incidence TD50
- assay_name: carcinogenic potency in animals, long-term in vivo studies, CPDB compilation (AID 1745844)
- recorded_conditions: rat; strain Fischer 344; males; in drinking water; site: lung; lesion: several types; types named in the paper; dosed 118 weeks; study length 128 weeks
reported_endpoint: TD50

Memo: CN(CCCC(=O)c1cccnc1)N=O , reported TD50: 0.182 mg/kg/day

###

- Test system: rodent lifetime carcinogenesis bioassay, tumor incidence TD50
- assay_name: carcinogenic potency in animals, long-term in vivo studies, CPDB compilation (AID 1745844)
- recorded_conditions: mouse; strain B6C3F1; males; inhaled; site: heart; lesion: hemangiosarcoma; dosed 13 weeks; study length 104 weeks
reported_endpoint: TD50

Here C=CC=C was tested on rodent lifetime carcinogenesis bioassay, tumor incidence TD50, and its TD50 came to 32.6 mg/kg/day

###

- Tested on: rodent lifetime carcinogenesis bioassay, tumor incidence TD50
- assay_name: carcinogenic potency in animals, long-term in vivo studies, CPDB compilation (AID 1745844)
- recorded_conditions: mouse; strain CBA; males; in feed; site: liver; lesion: hepatoma; dosed 52 weeks; study length 79 weeks
reported_endpoint: TD50

Memo: CN(C)c1ccc(C(=N)c2ccc(N(C)C)cc2)cc1 , reported TD50: 77.5 mg/kg/day

###

- Tested on: rodent lifetime carcinogenesis bioassay, tumor incidence TD50
- assay_name: carcinogenic potency in animals, long-term in vivo studies, CPDB compilation (AID 1745844)
- recorded_conditions: rat; strain Fischer 344; females; by gavage; site: kidney + mammary gland; lesion: tubule adenoma + tubule carcinoma + fibroadenoma; dosed 103 weeks; study length 104 weeks
reported_endpoint: TD50 (mg/kg/day)
Numeric only. Scale: mg/kg/day

Memo: C[C@@H]1Cc2c(Cl)cc(C(=O)N[C@@H](Cc3ccccc3)C(=O)O)c(O)c2C(=O)O1 , reported TD50: 0.386
